# System: Schistosoma japonicum
# assay_protocol: Cercaricidal activity against Schistosoma japonicum infected in Oncomelania hupensis measured after 120 mins by colour television microscopy
# Assay type: functional
# experimental_conditions: Schistosoma japonicum, 2 h
Kindly supply the reported LC50 values for the records listed here.
Express your answer in µg/mL, writing the number without its unit.

Sample O=c1c2cc(Cl)ccc2ncn1-c1ccccc1 ; LC50 observed: 1.17

response.value for Cc1ccc(-n2cnc3ccc([N+](=O)[O-])cc3c2=O)cc1 (field: LC50) = 1.45

Entry O=c1c2cc(Cl)cc(Cl)c2ncn1-c1ccc([N+](=O)[O-])cc1 , LC50 reported as 1.15

Lab book: LC50 of Cc1ccc(-n2cnc3c(Cl)cc(Cl)cc3c2=O)c(C)c1 noted as 1.35

----------
# Tested on: Schistosoma japonicum
# assay_protocol: Cercaricidal activity against Schistosoma japonicum infected in Oncomelania hupensis measured after 120 mins by colour television microscopy
# Format: functional
# experimental_conditions: Schistosoma japonicum, 2 h
Consider the following compounds; for each one, report its LC50.
Give a bare numeral; the unit µg/mL is implied.

In plain terms, COc1ccc(-n2cnc3c(Cl)cc(Cl)cc3c2=O)cc1 has a documented LC50 of 2.51

Item: COc1ccc(-n2cnc3c(Cl)cc(Cl)cc3c2=O)c(OC)c1 | LC50: 1.64

Just so you know, measured LC50 for COc1ccc(-n2cnc3ccc(Cl)cc3c2=O)cc1 came out at 0.95

Measured LC50, CN(C)c1ccc(-n2cnc3c(Cl)cc(Cl)cc3c2=O)cc1 : 1.55

Just so you know, measured LC50 for COc1cc(-n2cnc3ccc(Cl)cc3c2=O)cc(OC)c1OC came out at 0.68

Query Cc1ccc(-n2cnc3ccc(Cl)cc3c2=O)c(C)c1 yields LC50 of 1.1

LC50 reported for this compound Cc1ccc(-n2cnc3c(Cl)cc(Cl)cc3c2=O)cc1 : 1.19

Recorded LC50 (compound O=c1c2cc([N+](=O)[O-])ccc2ncn1-c1ccccc1 ): 1.78

Consider COc1cc([N+](=O)[O-])ccc1-n1cnc2c(Cl)cc(Cl)cc2c1=O . Its measured LC50 is 1.31

Measured LC50 of O=c1c2cc(Cl)cc(Cl)c2ncn1-c1ccccc1 : 1.66

----------
# assay_protocol: Toxicity in tadpole assessed as lethality at 0.625 ppm measured after 24 hrs
# Format: organism-based
# experimental_conditions: anura, in vivo
measure: mortality at 24 h, 0.625 ppm
Please provide the amount together with its unit, number first.

The molecule COc1cc(-n2cnc3ccc(Cl)cc3c2=O)cc(OC)c1OC showed mortality at 24 h, 0.625 ppm equal to 0%

----------
# assay_protocol: Toxicity in tadpole assessed as lethality at 0.3125 ppm measured after 96 hrs
# Format: organism-based
# experimental_conditions: anura, in vivo
measure: mortality at 96 h, 0.3125 ppm (%)
The figure you give is taken to be in %; do not add the unit.

mortality at 96 h, 0.3125 ppm reported for this compound COc1cc(-n2cnc3ccc(Cl)cc3c2=O)cc(OC)c1OC : 0

----------
# assay_protocol: Toxicity in tadpole assessed as lethality at 2.5 ppm measured after 72 hrs
# Type: organism-based
# experimental_conditions: anura, in vivo
measure: mortality at 72 h, 2.5 ppm
# output: numeric value plus its unit

Lab book: mortality at 72 h, 2.5 ppm of COc1cc(-n2cnc3ccc(Cl)cc3c2=O)cc(OC)c1OC noted as 0%

----------
# assay_protocol: Toxicity in tadpole assessed as lethality at 1.25 ppm measured after 96 hrs
# Assay type: organism-based
# experimental_conditions: anura, in vivo
measure: mortality at 96 h, 1.25 ppm
Dear colleague, please send the value followed by its unit.

Per the record, COc1cc(-n2cnc3ccc(Cl)cc3c2=O)cc(OC)c1OC has mortality at 96 h, 1.25 ppm of 0%

----------
# assay_protocol: Toxicity in tadpole assessed as lethality at 0.3125 ppm measured after 120 hrs
# Assay type: organism-based
# experimental_conditions: anura, in vivo
measure: mortality at 120 h, 0.3125 ppm (%)
Provide the reading as a plain figure in %.

The compound listed as COc1cc(-n2cnc3ccc(Cl)cc3c2=O)cc(OC)c1OC shows mortality at 120 h, 0.3125 ppm equal to 0

----------
# assay_protocol: Toxicity in tadpole assessed as lethality at 10 ppm measured after 12 hrs
# Assay type: organism-based
# experimental_conditions: anura, in vivo
measure: mortality at 12 h, 10 ppm

Entry under test: COc1cc(-n2cnc3ccc(Cl)cc3c2=O)cc(OC)c1OC . Its mortality at 12 h, 10 ppm was 0%

----------
# assay_protocol: Toxicity in tadpole assessed as lethality at 0.625 ppm measured after 96 hrs
# Type: organism-based
# experimental_conditions: anura, in vivo
measure: mortality at 96 h, 0.625 ppm (%)
Give the value, in units of %, as a plain number.

COc1cc(-n2cnc3ccc(Cl)cc3c2=O)cc(OC)c1OC has a reported mortality at 96 h, 0.625 ppm of 0

----------
# assay_protocol: Toxicity in tadpole assessed as lethality at 0.625 ppm measured after 12 hrs
# Assay type: organism-based
# experimental_conditions: anura, in vivo
measure: mortality at 12 h, 0.625 ppm (%)
# value in %; strip the unit string

Record COc1cc(-n2cnc3ccc(Cl)cc3c2=O)cc(OC)c1OC . Reported mortality at 12 h, 0.625 ppm: 0

----------
# Test system: Schistosoma japonicum
# assay_protocol: Cercaricidal activity against Schistosoma japonicum infected in Oncomelania hupensis measured after 120 mins by colour television microscopy
# Assay type: functional
# experimental_conditions: Schistosoma japonicum, 2 h
measure: LC50 (µg/mL)
Just the number in µg/mL, nothing appended.

# COc1cc(-n2cnc3c(Cl)cc(Cl)cc3c2=O)cc(OC)c1OC with Schistosoma japonicum: LC50 is 2.49

The molecule Cc1ccc(-n2cnc3ccc(Cl)cc3c2=O)cc1 , when measured on Schistosoma japonicum, yielded LC50 of 1.02

// returns LC50 for COc1cc(-n2cnc3ccc([N+](=O)[O-])cc3c2=O)cc(OC)c1OC with Schistosoma japonicum; value = 1.26

Here COc1ccc(-n2cnc3ccc(Cl)cc3c2=O)c(OC)c1 was tested on Schistosoma japonicum, and its LC50 came to 0.91

----------
# assay_protocol: Toxicity in tadpole assessed as lethality at 10 ppm measured after 24 hrs
# Assay type: organism-based
# experimental_conditions: anura, in vivo
measure: mortality at 24 h, 10 ppm (%)
Express it in %; write the number only.

// mortality at 24 h, 10 ppm value for COc1cc(-n2cnc3ccc(Cl)cc3c2=O)cc(OC)c1OC : 0

----------
# assay_protocol: Toxicity in tadpole assessed as lethality at 10 ppm measured after 120 hrs
# Assay type: organism-based
# experimental_conditions: anura, in vivo
measure: mortality at 120 h, 10 ppm (%)
Report the figure in % without appending any unit label.

Short answer for COc1cc(-n2cnc3ccc(Cl)cc3c2=O)cc(OC)c1OC : mortality at 120 h, 10 ppm was 20

----------
# assay_protocol: Toxicity in tadpole assessed as lethality at 0.625 ppm measured after 48 hrs
# Assay type: organism-based
# experimental_conditions: anura, in vivo
measure: mortality at 48 h, 0.625 ppm
Report as: number unit

Item: COc1cc(-n2cnc3ccc(Cl)cc3c2=O)cc(OC)c1OC | mortality at 48 h, 0.625 ppm: 0%

----------
# assay_protocol: Toxicity in tadpole assessed as lethality at 1.25 ppm measured after 12 hrs
# Format: organism-based
# experimental_conditions: anura, in vivo
measure: mortality at 12 h, 1.25 ppm (%)
The figure you give is taken to be in %; do not add the unit.

For this molecule ( COc1cc(-n2cnc3ccc(Cl)cc3c2=O)cc(OC)c1OC ), measured mortality at 12 h, 1.25 ppm is 0

----------
# assay_protocol: Toxicity in tadpole assessed as lethality at 1.25 ppm measured after 72 hrs
# Type: organism-based
# experimental_conditions: anura, in vivo
measure: mortality at 72 h, 1.25 ppm (%)
State just the number; it will be interpreted in %.

// recorded mortality at 72 h, 1.25 ppm for COc1cc(-n2cnc3ccc(Cl)cc3c2=O)cc(OC)c1OC : 0

----------
# assay_protocol: Toxicity in tadpole assessed as lethality at 1.25 ppm measured after 24 hrs
# Assay type: organism-based
# experimental_conditions: anura, in vivo
measure: mortality at 24 h, 1.25 ppm (%)
Report the figure in % without appending any unit label.

Looking up COc1cc(-n2cnc3ccc(Cl)cc3c2=O)cc(OC)c1OC , I found its mortality at 24 h, 1.25 ppm recorded as 0

----------
# assay_protocol: Toxicity in tadpole assessed as lethality at 2.5 ppm measured after 12 hrs
# Type: organism-based
# experimental_conditions: anura, in vivo
measure: mortality at 12 h, 2.5 ppm
I'd appreciate it if you included the unit after the number.

For record COc1cc(-n2cnc3ccc(Cl)cc3c2=O)cc(OC)c1OC the listed mortality at 12 h, 2.5 ppm is 0%

----------
# assay_protocol: Toxicity in tadpole assessed as lethality at 0.625 ppm measured after 72 hrs
# Assay type: organism-based
# experimental_conditions: anura, in vivo
measure: mortality at 72 h, 0.625 ppm (%)
The reply should contain only the number, in %.

Entry COc1cc(-n2cnc3ccc(Cl)cc3c2=O)cc(OC)c1OC , mortality at 72 h, 0.625 ppm reported as 0
